The measurements presented in this section are drawn from patent US20160175306A1.

Tested on: rat hepatocytes
assay text: In vitro metabolic stability in rat hepatocytes
Format: in vitro ADME
reported conditions: 1 μM test compound, calculated from half-life
reported property: Fmax (maximal oral bioavailability) (%)

Example entries and their recorded answers appear below.
compound | unit annotation | Fmax (maximal oral bioavailability)
C=C(c1ccc(OC)cc1)c1cc(NCCC(F)(F)F)c2ncc(-c3ccc(C(=O)NC4CC4)c(C)c3)n2n1 [Compound A10] | % | 48
COc1ccc(C(=O)c2cc(NCCC(F)(F)F)c3ncc(-c4ccc(C(=O)NC5CC5)c(C)c4)n3n2)cc1 [Compound A9] | % | 71
C=C(c1ccc(OC)c(F)c1)c1cc(NCCC(F)(F)F)c2ncc(-c3ccc(C(=O)NC4CC4)c(C)c3)n2n1 [Compound A1] | % | 39
COc1ccc(C(F)(F)c2cc(NCCC(F)(F)F)c3ncc(-c4ccc(C(=O)NC5CC5)c(C)c4)n3n2)cc1F [Compound A2] | % | 64
COc1ccc(Cc2cc(NCCC(F)(F)F)c3ncc(-c4ccc(C(=O)NC5CC5)c(C)c4)n3n2)cc1F [Comparative Example 1, reference compound] | % | 29

A. Cc1cc(-c2cnc3c(NCCC(F)(F)F)cc(C4(c5cccc(F)c5F)CC4)nn23)ccc1C(=O)NC1CC1 [Compound A17]
B. C=C(c1cc(NCCC(F)(F)F)c2ncc(-c3ccc(C(=O)NC4CC4)c(C)c3)n2n1)c1cc(F)ccc1O [Compound A22]
I'd appreciate it if you could identify which of A and B has the greater Fmax (maximal oral bioavailability). Answer = label.
A
